system: CD2F1 mice, L1210 leukemia ip, survival T/C; assay: NCI In Vivo Anticancer Drug Screen. Data for tumor model L1210 Leukemia (intraperitoneal) in CD2F1 (CDF1) mice; conditions: endpoint: mean survival time; dose: 200.0 mg/kg/injection; schedule: Q01DX009 (ip); vehicle: saline with Tween-80; higher = longer survival
Inconclusive results and toxic doses are left out.
Assay readout: T/C

// T/C value for CN(C)c1ccc(C(=O)c2ccc(N(C)C)cc2)cc1 : 102 % of control

// T/C value for CCC/C=C/CCOC(=N)C(Cl)(Cl)Cl : 88 % of control

// T/C value for Cc1cc2ncn(CO)c2cc1C : 100 % of control

// T/C value for Oc1c(CN2CCOCC2)cc(CN2CCOCC2)cc1CN1CCOCC1 : 95 % of control

// T/C value for Cc1ccc(C(C#N)Nc2ccccc2)cc1 (stereo unspecified) : 88 % of control

// T/C value for CCOC(=O)C(C(C)=O)C(=O)c1ccc([N+](=O)[O-])cc1 (stereo unspecified) : 101 % of control

// T/C value for CC(C)OC(=O)Nc1ccc(F)c(F)c1 : 98 % of control

// T/C value for C/C(=N\O)C1(C)CC=CCC1C(=O)O (stereo unspecified) : 93 % of control

// T/C value for CCOC(=O)C(C(=O)c1ccccc1)C(c1ccccc1)C(C(=O)OCC)C(=O)c1ccccc1 (stereo unspecified) : 94 % of control

// T/C value for COCc1nccc2c1[nH]c1ccccc12 : 110 % of control

// T/C value for COC(=O)C1C=Cc2ccccc21 (stereo unspecified) : 95 % of control

// T/C value for Cc1ccc(Cl)cc1N=Cc1ccccc1O : 94 % of control

// T/C value for O=C(Nc1c(Cl)cccc1Cl)OCCOc1ccc(Cl)cc1 : 105 % of control

// T/C value for COc1cc(C(=O)N/N=C/c2ccc(N(C)C)cc2)cc(OC)c1OC : 98 % of control

// T/C value for CC(=O)c1ccc(N=Nc2c(N)nc(N)[nH]c2=O)cc1 : 105 % of control

// T/C value for COc1ccc(CNCCO)cc1 : 98 % of control

// T/C value for Cc1c(Cl)cccc1NS(=O)(=O)c1ccccc1 : 103 % of control

// T/C value for Cc1cc(C)nc(NS(=O)(=O)c2ccc(NCN3C(=O)c4ccccc4C3=O)cc2)n1 : 94 % of control

// T/C value for CCOC(=O)C1CC1C(=O)OCC (stereo unspecified) : 104 % of control

// T/C value for Cc1cc(C)c(CCc2c(C)cc(C)cc2C)c(C)c1 : 96 % of control

// T/C value for COc1cc(Cc2nc(Cl)cc(Cl)n2)cc(OC)c1OC : 97 % of control

// T/C value for N#CCN(CC#N)CCN(CC#N)CC#N : 93 % of control

// T/C value for N#C/C(=C1C=C/C(=N\O)C(Cl)=C\1)c1ccccc1 : 88 % of control

// T/C value for C1=Cc2ccccc2/C1=C/c1ccc(/C=C2\C=Cc3ccccc32)cc1 : 89 % of control

// T/C value for C/C=C\c1ccc(OCCOC(=O)Nc2ccc(C)c([N+](=O)[O-])c2)c(OC)c1 : 88 % of control

// T/C value for O=C(Nc1ccc2c3c(cccc13)CC2)c1cccc([N+](=O)[O-])c1 : 95 % of control

---

tested on: CD2F1 mice, L1210 leukemia ip, survival T/C; assay: NCI In Vivo Anticancer Drug Screen. Data for tumor model L1210 Leukemia (intraperitoneal) in CD2F1 (CDF1) mice; details: endpoint: mean survival time; dose: 100.0 mg/kg/injection; schedule: Q01DX009 (ip); vehicle: saline; higher = longer survival
Inconclusive results and toxic doses are left out.
Assay readout: T/C

// T/C value for O=C1CCCO1 : 92 % of control

// T/C value for COc1ccc(OCCC(=O)O)cc1 : 105 % of control

// T/C value for O=P(O)(CO)CO : 101 % of control

// T/C value for C/C=C/CNc1ccccc1 : 101 % of control

// T/C value for NCCc1cc(O)c(O)cc1O : 104 % of control

// T/C value for COC1C(O)CC(=O)OC(C)C/C=C/C=C/C(OC2CCC(N(C)C)C(C)O2)C(C)CC(CC=O)C1OC1OC(C)C(OC2CC(C)(O)C(O)C(C)O2)C(N(C)C)C1O (stereo unspecified) : 96 % of control

// T/C value for CCCCCCCCCCCC(=O)N(C)CCS(=O)(=O)O : 103 % of control

// T/C value for Cc1cn(C2CC(O)C(CO)O2)c(=O)[nH]c1=O (stereo unspecified) : 98 % of control

// T/C value for O=C(O)/C=C/C(=O)Nc1cccc(Oc2ccc([N+](=O)[O-])cc2[N+](=O)[O-])c1 : 96 % of control

// T/C value for CCCOP(=O)(CCl)OCCC : 95 % of control

// T/C value for COC(=O)C(N)CSSCC(N)C(=O)OC (stereo unspecified) : 102 % of control

// T/C value for Cc1ccccc1N=C(NO)c1ccccc1 : 98 % of control

// T/C value for Cn1cnc2cc(N)ccc21 : 98 % of control

// T/C value for O=C1CC(=O)NC(=S)N1 : 95 % of control

// T/C value for N#CCCN1CCOCC1 : 95 % of control

// T/C value for CC(=O)NC(C=O)CC(C=O)CO (stereo unspecified) : 107 % of control

// T/C value for CN(C)CCCNCC#CCNCCCN(C)C : 98 % of control

// T/C value for NCCCCCC(=O)O : 94 % of control

// T/C value for CC1CN(CCC#N)CC(C)O1 (stereo unspecified) : 105 % of control

// T/C value for Cc1ccc(S(=O)(=O)N2CCCCC2)cc1 : 93 % of control

// T/C value for CC(CC(=O)Nc1ccc(S(=O)(=O)F)cc1)c1ccc(N2C(N)=NC(N)=NC2(C)C)cc1 (stereo unspecified) : 113 % of control

// T/C value for O=C(Nc1cccc([N+](=O)[O-])c1)c1cc2ccccc2cc1O : 101 % of control

// T/C value for N#Cc1cccnc1.NCCNCCN.[Br-].[Pt+4] : 98 % of control

// T/C value for COc1ncnc2c1c(C#N)cn2C1OC(CO)C(O)C1O (stereo unspecified) : 91 % of control

// T/C value for CS(=O)(=O)OCC(O)C(O)COS(C)(=O)=O (stereo unspecified) : 104 % of control

// T/C value for O=S(=O)(O)c1cncc(S(=O)(=O)O)n1 : 90 % of control

---

tested on: CD2F1 mice, L1210 leukemia ip, survival T/C; assay: NCI In Vivo Anticancer Drug Screen. Data for tumor model L1210 Leukemia (intraperitoneal) in CD2F1 (CDF1) mice; settings: endpoint: mean survival time; dose: 200.0 mg/kg/injection; schedule: Q01DX009 (ip); vehicle: saline; higher = longer survival
Inconclusive results and toxic doses are left out.
For each entry below, report its T/C value.

// T/C value for Cc1ccccc1N=C(NO)c1ccccc1 : 95 % of control

// T/C value for COc1ccc(OCCC(=O)O)cc1 : 105 % of control

// T/C value for CNC(=O)Nc1cc(C)ccc1OC : 107 % of control

// T/C value for c1nc[nH]n1 : 98 % of control

// T/C value for CCOC(=O)C(C)C(=O)O (stereo not drawn) : 98 % of control

// T/C value for CN(C)CCCNCc1c[nH]c(=O)[nH]c1=O : 102 % of control

// T/C value for CCCOP(=O)(CCl)OCCC : 100 % of control

// T/C value for COCCN=C(N)C(N)=NCCOC : 103 % of control

---

system: CD2F1 mice, L1210 leukemia ip, survival T/C; assay: NCI In Vivo Anticancer Drug Screen. Data for tumor model L1210 Leukemia (intraperitoneal) in CD2F1 (CDF1) mice; conditions: endpoint: mean survival time; dose: 50.0 mg/kg/injection; schedule: Q01DX001 (ip); vehicle: Klucel (hydroxypropylcellulose) (HPC); higher = longer survival
Inconclusive results and toxic doses are left out.
Assay readout: T/C

// T/C value for CCOC(=O)Nc1cc(NCCCCc2ccccc2)c([N+](=O)[O-])c(N)n1 : 89 % of control

// T/C value for S=C1N(C2CCCCC2)CCN1C1CCCCC1 : 108 % of control

// T/C value for COCC(OC)C(OC)C(OC)C(C=O)OC (centres undefined) : 99 % of control

// T/C value for CC1(C)N=C(N)N=C(N)N1c1cccc(OCCOc2cccc(N)c2)c1 : 97 % of control

---

tested on: CD2F1 mice, L1210 leukemia ip, survival T/C; assay: NCI In Vivo Anticancer Drug Screen. Data for tumor model L1210 Leukemia (intraperitoneal) in CD2F1 (CDF1) mice; settings: endpoint: mean survival time; dose: 400.0 mg/kg/injection; schedule: Q01DX001 (ip); vehicle: other; higher = longer survival
Toxic doses and inconclusive results are not listed.
Assay readout: T/C

// T/C value for c1ccc(Cn2cccc2N=Nc2ccccc2)cc1 : 98 % of control

// T/C value for O=C(Nc1ccccc1)O/N=C(/c1ccccc1)c1ccccn1 : 101 % of control

// T/C value for O=c1cn[nH]c2ccc(Br)cc12 : 91 % of control

// T/C value for CCCCCCCCCC/C=C/C1=C(N=[N+]=N)C(=O)c2ccccc2C1=O : 94 % of control

// T/C value for O=c1c2[nH]cnc2ncn1C1CCCC1 : 101 % of control
